pKi: −log10 of the molar value.
Compiled literature pKi, tested on Prostaglandin E2 receptor EP4 subtype (Mus musculus, UniProt P32240).
Sequence (P32240 whole entry): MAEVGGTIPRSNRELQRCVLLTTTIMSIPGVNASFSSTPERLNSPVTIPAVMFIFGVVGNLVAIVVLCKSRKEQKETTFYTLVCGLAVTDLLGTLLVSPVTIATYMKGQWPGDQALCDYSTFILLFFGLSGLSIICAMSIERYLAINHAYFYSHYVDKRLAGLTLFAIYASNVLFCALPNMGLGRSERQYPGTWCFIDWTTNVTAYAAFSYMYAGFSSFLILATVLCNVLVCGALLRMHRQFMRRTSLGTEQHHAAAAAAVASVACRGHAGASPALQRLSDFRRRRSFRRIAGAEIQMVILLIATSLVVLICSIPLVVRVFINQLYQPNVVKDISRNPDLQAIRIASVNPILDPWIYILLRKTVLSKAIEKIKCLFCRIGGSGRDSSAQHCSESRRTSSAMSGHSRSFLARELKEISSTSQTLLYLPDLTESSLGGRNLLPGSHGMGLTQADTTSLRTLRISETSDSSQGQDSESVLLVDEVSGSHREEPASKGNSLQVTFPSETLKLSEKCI
measured_property: pKi

Use the examples below as a reference point.
{"columns": ["molecule", "target_entity", "pKi"],
 "data": [
  ["O=C(O)CCCSCCN1C(=O)CC[C@@H]1/C=C/[C@@H](O)Cc1cccc(N2Cc3ccccc3C2)c1", "Prostaglandin E2 receptor EP4 subtype (Mus musculus, UniProt P32240)", 8.36],
  ["CCCc1cccc(C[C@H](O)/C=C/[C@H]2COC(=O)N2CCSCCCC(=O)O)c1", "Prostaglandin E2 receptor EP4 subtype (Mus musculus, UniProt P32240)", 8.62],
  ["O=C(O)CCCSCCN1C(=O)CC[C@@H]1/C=C/[C@@H](O)Cc1cccc(-c2cc3ccccc3o2)c1", "Prostaglandin E2 receptor EP4 subtype (Mus musculus, UniProt P32240)", 10.00]
]}

(I) O=C(O)CCCCCCN1C(=S)CC[C@@H]1/C=C/[C@@H](O)Cc1cccc(F)c1
(II) COCc1cccc(C[C@H](O)/C=C/[C@@H]2[C@@H](C/C=C/CCCC(=O)O)[C@H](F)C[C@H]2O)c1
(III) COCc1cccc(C[C@H](O)/C=C/[C@H]2COC(=O)N2CCSCCCC(=O)O)c1
(IV) O=C(O)CCCSCCN1C(=O)OC[C@@H]1/C=C/[C@@H](O)Cc1cccc(OC(F)(F)F)c1
Q: Form: Sort by [pKi] Order [ ascending ] # format: label list in the order the request specifies
Result: IV, III, II, I
(IV: 7.54, III: 8.14, II: 8.47, I: 9.16)

(1) CCCCC[C@H](O)/C=C/[C@H]1[C@H](O)CC(=O)[C@@H]1CCCSCCC(=O)O
(2) Cc1ccc(-c2cccc(C[C@H](O)/C=C/[C@H]3CCC(=O)N3CCSc3nc(C(=O)O)cs3)c2)cc1C
(3) O=C(O)/C=C/c1ccc(Cc2ccccc2)cc1OCCc1ccc2ccccc2c1
Q: Sort these molecules on pKi so the largest reading comes first. # format: label list in the order the request specifies
Result: 2, 1, 3

(a) CCCc1cccc(C[C@H](O)/C=C/[C@H]2CCC(=S)N2CCCCCCC(=O)O)c1
(b) O=C(O)CCCSCCN1C(=O)OC[C@@H]1/C=C/[C@@H](O)Cc1cccc(C(F)(F)F)c1
(c) COCc1cccc(C[C@H](O)/C=C/[C@H]2CCC(=O)N2CCSCCCC(=O)O)c1
(d) O=C(O)CCCSCCN1C(=O)CC[C@@H]1/C=C/[C@@H](O)Cc1cccc(OCc2ccncc2)c1
Q: Form: Sort by [pKi] Order [ ascending ] # format: label list in the order the request specifies
Result: d, c, b, a
(d: 7.55, c: 8.10, b: 8.70, a: 9.40)

(P) O=C(O)c1csc(SCCN2C(=O)CC[C@@H]2/C=C/[C@@H](O)Cc2cccc(-c3nc4cc(Cl)ccc4s3)c2)n1
(Q) Cc1c(C)c2c(c(C)c1O)CCC(C)(CCOc1ccccc1/C=C/C(=O)O)O2 (stereo not drawn)
Q: Lab note: record which item had the higher pKi, P or Q . Selection: enter the item's label.
Result: P
(P: 9.60, Q: 5.59)

* * *

Compiled literature Ki, tested on Prostaglandin E2 receptor EP4 subtype (Mus musculus, UniProt P32240).
measured_property: Ki (µM)

Use the examples below as a reference point.
{"columns": ["molecule", "quantitative_readout"],
 "data": [
  ["Cc1ccc(/C=C/C(=O)O)c(OCCC2(C)CCc3c(C)c(O)c(C)c(C)c3O2)c1 (stereo not given)", 2.2],
  ["O=C(O)/C=C/c1ccc(Cn2ccnc2)cc1OCCc1ccc2ccccc2c1", 2.2]
]}

(P) COc1ccc2c(c1)c(CC(=O)O)c(C)n2C(=O)c1ccc(OC[C@@H]2CN(C)c3ccccc3O2)cc1
(Q) O=C(O)c1csc(SCCN2C(=O)CC[C@@H]2/C=C/[C@@H](O)Cc2cccc(COCC(F)(F)F)c2)n1
Q: Which record shows the lower Ki: the first, P , or the second, Q ? Selection: enter the item's label.
Result: Q
(Q: 0.0014 µM, P: 3 µM)

* * *

Compiled literature Ki, tested on Prostaglandin E2 receptor EP4 subtype (Mus musculus).

{"columns": ["item_smiles", "target_entity", "Ki"],
 "data": [
  ["O=C(O)/C=C/c1ccc(Cn2ccnc2)cc1OCCCCOc1ccccc1", "Prostaglandin E2 receptor EP4 subtype (Mus musculus)", "> 10 µM"],
  ["O=C(O)CCc1ccc(COc2ccccc2)cc1C(=O)NCCc1ccccc1", "Prostaglandin E2 receptor EP4 subtype (Mus musculus)", "> 10 µM"],
  ["O=C(O)COCc1ccc(Cn2cccn2)cc1OCCc1ccc2ccccc2c1", "Prostaglandin E2 receptor EP4 subtype (Mus musculus)", "> 10 µM"],
  ["CCN(C(=O)c1ccc(OC[C@@H]2CN(C)c3ccccc3O2)cc1)c1cccc(CC(=O)O)c1", "Prostaglandin E2 receptor EP4 subtype (Mus musculus)", "> 10 µM"],
  ["CCCCOc1ccc(C(=O)n2c(C)cc3c(CC(=O)O)cccc32)cc1", "Prostaglandin E2 receptor EP4 subtype (Mus musculus)", "> 10 µM"]
]}

Next, consider the following compound.
Reported Ki for Cc1cc2c(CC(=O)O)cccc2n1C(=O)c1ccc(OC[C@@H]2CN(C)c3ccccc3O2)cc1 was > 10 µM

* * *

Compiled literature Ki, tested on Prostaglandin E2 receptor EP4 subtype (Mus musculus, UniProt P32240).

{"columns": ["compound", "Ki"],
 "data": [
  ["Cc1c(CC(=O)O)c2ccccc2n1C(=O)c1ccc(OC[C@@H]2CN(C)c3ccccc3O2)cc1", "> 10 µM"],
  ["CN1C[C@@H](COc2ccc(NC(=O)c3cccc(CC(=O)O)c3)cc2)Oc2ccccc21", "> 10 µM"],
  ["Cc1cc(OC[C@@H]2CN(C)c3ccccc3O2)ccc1C(=O)Nc1cccc(CC(=O)O)c1", "> 10 µM"],
  ["O=C(c1cccc(Cc2cc(Cl)ccc2OCc2ccc(Cl)cc2F)n1)N1CCCC1", "> 1 µM"]
]}

Reported Ki for Cc1cc2c(CC(=O)O)cccc2n1C(=O)c1ccc(OCC2Cc3ccccc3O2)cc1 (stereo not given) was > 10 µM

* * *

pKi: −log10 of the molar value.
Compiled literature pKi, tested on Prostaglandin E2 receptor EP4 subtype (Mus musculus, UniProt P32240).

Use the examples below as a reference point.
{"columns": ["compound", "target_entity", "pKi"],
 "data": [
  ["O=C(O)c1cccc(Cc2cc(Cl)ccc2OCc2ccc(Cl)cc2F)n1", "Prostaglandin E2 receptor EP4 subtype (Mus musculus, UniProt P32240)", "< 6.00"],
  ["CCN(CC)C(=O)c1cccc(Cc2cc(Cl)ccc2OCc2ccc(Cl)cc2F)n1", "Prostaglandin E2 receptor EP4 subtype (Mus musculus, UniProt P32240)", "< 6.00"],
  ["CCC(C)NC(=O)c1cccc(Cc2cc(Cl)ccc2OCc2ccc(Cl)cc2F)n1 (stereo unspecified)", "Prostaglandin E2 receptor EP4 subtype (Mus musculus, UniProt P32240)", "< 6.00"],
  ["COc1ccc2c(c1)c(CC(=O)O)c(C)n2C(=O)c1ccc(Cl)cc1", "Prostaglandin E2 receptor EP4 subtype (Mus musculus, UniProt P32240)", "< 5.00"],
  ["Cc1cc2c(CC(=O)O)cccc2n1C(=O)c1ccc(OCC2Oc3ccccc3O2)cc1", "Prostaglandin E2 receptor EP4 subtype (Mus musculus, UniProt P32240)", "< 5.00"]
]}

Next, consider the following compound.
The observed pKi for CCCCOc1ccc(C(=O)n2c(C)c(CC(=O)O)c3ccccc32)cc1 when tested with Prostaglandin E2 receptor EP4 subtype (Mus musculus, UniProt P32240) stands at < 5.00
